System: WPMY1-ACTB-RAB5A
Test: phenotypically active (imaging signature differs from DMSO and reproducible) at any of 0.3-9 uM (binary (1 = active, 0 = inactive)); higher = active
Settings: treatment time: 24 h
Counter-ions that a name gives are not always drawn.
Give your call using only these classes: active, inactive

// below: answered compounds
>  <compound>
CN1CCc2cccc3c2[C@H]1Cc1ccc(O)c(O)c1-3 [r(-)-apomorphine]

>  <assigned-category>
active

$$$$
>  <compound>
CCCCN1CCCCC1C(=O)Nc1c(C)cccc1C (centres undefined) [bupivacaine]

>  <assigned-category>
inactive

$$$$
>  <compound>
C/C(=C/C(=O)Nc1ccccc1C(=O)O)c1ccc2ccccc2c1

>  <assigned-category>
inactive

$$$$
>  <compound>
COc1nc(N)nc2c1ncn2[C@@H]1O[C@H](CO)[C@@H](O)[C@@H]1O [Nelarabine]

>  <assigned-category>
inactive

$$$$
>  <compound>
C/C(=N/NC(=N)N)c1ccc(NC(=O)Nc2ccc(/C(C)=N/NC(=N)N)cc2)cc1

>  <assigned-category>
active

$$$$
>  <compound>
COc1cc2ncnc(Oc3cccc(NC(=O)Nc4cc(C(C)(C)C(F)(F)F)on4)c3)c2cc1OC

>  <assigned-category>
inactive

$$$$
>  <compound>
O=C(CCCCCCC(=O)NO)NO

>  <assigned-category>
inactive

$$$$
>  <compound>
Cn1cc(-c2cnc3ccc4ccc(CS(=O)(=O)NCc5ccccn5)cc4c(=O)c3c2)cn1

>  <assigned-category>
inactive

$$$$

Dear all, I need the recorded test outcome for CC(C)c1nc(CN(C)C(=O)N[C@H](C(=O)N[C@@H](Cc2ccccc2)C[C@H](O)[C@H](Cc2ccccc2)NC(=O)OCc2cncs2)C(C)C)cs1 [ritonavir] , thank you. inactive

Dear all, I need the recorded test outcome for CC[C@H](CO)Nc1nc(Nc2cccc(-c3ccccn3)c2)c2ncn(C(C)C)c2n1 [(R)-DRF053 dihydrochloride] , thank you. inactive

Dear all, I need the recorded test outcome for Cc1ccccc1Sc1ccc(/C=C2/SC(=S)NC2=O)cc1[N+](=O)[O-] , thank you. inactive

Dear all, I need the recorded test outcome for Cc1c(NC(=O)OC[C@@H]2COCCN2)cn2ncnc(Nc3ccc4c(cnn4Cc4cccc(F)c4)c3)c12 , thank you. active

Dear all, I need the recorded test outcome for COc1ccc(CN(CCN(C)C)c2ccccn2)cc1 [mepyramine] , thank you. inactive

Dear all, I need the recorded test outcome for C=CC(=O)Nc1cccc(Nc2nc(Nc3ccc(Oc4ccnc(C(=O)NC)c4)cc3)ncc2F)c1 , thank you. active

Dear all, I need the recorded test outcome for NC(=O)[C@@H](CCC(F)(F)F)N(Cc1ccc(-c2ncon2)cc1F)S(=O)(=O)c1ccc(Cl)cc1 [avagacestat] , thank you. inactive

Dear all, I need the recorded test outcome for COc1cc(C(=O)N2CCC(N3CCN(C)CC3)CC2)ccc1Nc1ncc2c(n1)N(C)c1ccccc1C(=O)N2C , thank you. active

----------
System: A549-ACTB-RAB5A
Assay: phenotypically active (imaging signature differs from DMSO and reproducible) at any of 0.3-9 uM (binary (1 = active, 0 = inactive)); higher = active
Conditions: treatment time: 24 h
reported-endpoint: phenotypically active
Lab note: record the figure alone, no unit after it.

# annotated cases, reported phenotypically active shown
>  <compound>
Cc1cc2cc(NS(=O)(=O)c3ccc(C#N)cc3)ccc2n(C)c1=O

>  <phenotypically active>
0

$$$$
>  <compound>
CNc1nc(-c2ccc3c(N)n[nH]c3c2)cc(N2C[C@@H](C(=O)NC3CCCCC3)CC[C@H]2C)n1

>  <phenotypically active>
1

$$$$
>  <compound>
CCCNC(=O)NS(=O)(=O)c1ccc(Cl)cc1 [chlorpropamide]

>  <phenotypically active>
0

$$$$

Consider the compound shown here: CCC(NC(C)C)C(O)c1ccc(O)c(O)c1 (stereo not given) [isoetharine] What is its recorded phenotypically active? 0

Consider the compound shown here: N=C(N)NC(=O)Cc1c(Cl)cccc1Cl [guanfacine] What is its recorded phenotypically active? 0

----------
System: A549-GM130-SQSTM1
Assay: lowest phenotypically active concentration; higher = less potent
Conditions: treatment time: 24 h
reported-endpoint: lowest phenotypically active concentration (µM)
I only need the number, in µM, no unit after it.

# annotated cases, reported lowest phenotypically active concentration shown
>  <molecule>
COc1ccccc1S(=O)(=O)Nc1ccc2c(c1)CN(C)C(=O)N2

>  <experimental-target>
A549-GM130-SQSTM1

>  <value>
3

$$$$
>  <molecule>
Cc1ccc(-n2nc(C(C)(C)C)cc2NC(=O)Nc2ccc(OCCN3CCOCC3)c3ccccc23)cc1

>  <experimental-target>
A549-GM130-SQSTM1

>  <value>
3

$$$$
>  <molecule>
OCCOCCN1CCN(C2=Nc3ccccc3Sc3ccccc32)CC1 [Quetiapine hemifumarate]

>  <experimental-target>
A549-GM130-SQSTM1

>  <value>
9

$$$$

Consider the molecule shown here: COc1cc2nc3occc3c(OC)c2cc1OC What is its recorded lowest phenotypically active concentration? 3

Consider the molecule shown here: COc1ccc(S(=O)(=O)N(CCO)c2ccccc2CN(C)C/C=C/c2ccc(Cl)cc2)cc1 What is its recorded lowest phenotypically active concentration? 3

----------
Test system: HepG2-ACTB-RAB5A
Assay: phenotypically active (imaging signature differs from DMSO and reproducible) at any of 0.3-9 uM (binary (1 = active, 0 = inactive)); higher = active
Settings: treatment time: 24 h
Here, each record is paired with measured phenotypically active data.
Lab note: record the figure alone, no unit after it.

# annotated cases, reported phenotypically active shown
>  <compound>
O=c1ncn2nc(Sc3ccc(F)cc3F)ccc2c1-c1c(Cl)cccc1Cl

>  <experimental-target>
HepG2-ACTB-RAB5A

>  <phenotypically active>
0

$$$$
>  <compound>
CC(=O)[C@@]1(O)CC[C@H]2[C@@H]3C[C@H](C)C4=CC(=O)C=C[C@]4(C)[C@@]3(F)[C@@H](O)C[C@@]21C

>  <experimental-target>
HepG2-ACTB-RAB5A

>  <phenotypically active>
0

$$$$
>  <compound>
Cc1ccc(S(=O)(=O)n2c(N)nc3ccccc32)cc1

>  <experimental-target>
HepG2-ACTB-RAB5A

>  <phenotypically active>
1

$$$$

As a next step, examine the compound that follows.
Consider the compound shown here: c1ccc2c(c1)Cc1c(Nc3ccc4c(c3)OCCO4)n[nH]c1-2 What is its recorded phenotypically active? 1

----------
Test system: WPMY1-CANX-COX4
Experiment: phenotypically active (imaging signature differs from DMSO and reproducible) at any of 0.3-9 uM (binary (1 = active, 0 = inactive)); higher = active
Settings: treatment time: 24 h
Here, each record is paired with measured phenotypically active data.
Lab note: record the figure alone, no unit after it.

# annotated cases, reported phenotypically active shown
>  <compound>
CCCCc1oc2ccccc2c1C(=O)c1cc(I)c(OCCN(CC)CC)c(I)c1

>  <experimental-target>
WPMY1-CANX-COX4

>  <phenotypically active>
1

$$$$
>  <compound>
O=C(Nc1ccncc1)c1cc([N+](=O)[O-])ccc1Cl

>  <experimental-target>
WPMY1-CANX-COX4

>  <phenotypically active>
1

$$$$
>  <compound>
CCOCCn1c(N2CCCN(C)CC2)nc2ccccc21

>  <experimental-target>
WPMY1-CANX-COX4

>  <phenotypically active>
0

$$$$

Consider the compound shown here: O=c1c(-c2ccc(O)cc2)coc2cc(O[C@@H]3O[C@H](CO)[C@@H](O)[C@H](O)[C@H]3O)cc(O)c12 What is its recorded phenotypically active? 1

Consider the compound shown here: C[N+]1(C)CCC(=C(c2ccccc2)c2ccccc2)CC1 What is its recorded phenotypically active? 0

Consider the compound shown here: CO[C@H]1C=CO[C@@]2(C)Oc3c(C)c(O)c4c(O)c(c(/C=N/N5CCN(C)CC5)c(O)c4c3C2=O)NC(=O)C(C)=CC=C[C@H](C)[C@H](O)[C@@H](C)[C@@H](O)[C@@H](C)[C@H](OC(C)=O)[C@@H]1C What is its recorded phenotypically active? 0

Consider the compound shown here: Cc1c(-c2ccccc2)oc2c(C(=O)OCCN3CCCCC3)cccc2c1=O [flavoxate] What is its recorded phenotypically active? 0

Consider the compound shown here: CCCCCC1CC1CC1CC1CCCCCCCC(=O)O (stereo not drawn) What is its recorded phenotypically active? 0

----------
Tested on: HepG2-ACTB-RAB5A
Assay: phenotypically active (imaging signature differs from DMSO and reproducible) at any of 0.3-9 uM (binary (1 = active, 0 = inactive)); higher = active
Conditions: treatment time: 24 h
reported-endpoint: phenotypically active
Lab note: record the figure alone, no unit after it.

# annotated cases, reported phenotypically active shown
>  <compound>
C=CC(=O)Nc1cccc(Nc2nc(Nc3ccc(OCCOC)cc3)ncc2F)c1

>  <experimental-target>
HepG2-ACTB-RAB5A

>  <phenotypically active>
1

$$$$
>  <compound>
Cn1cnc(N)c2ncnc1-2

>  <experimental-target>
HepG2-ACTB-RAB5A

>  <phenotypically active>
0

$$$$
>  <compound>
O=NN(CCCl)C(=O)NCCCl

>  <experimental-target>
HepG2-ACTB-RAB5A

>  <phenotypically active>
0

$$$$
>  <compound>
CC(=O)C1=C(O)[C@]2(C)C(=CC1=O)Oc1c(C(C)=O)c(O)c(C)c(O)c12 [(+)-Usnic acid]

>  <experimental-target>
HepG2-ACTB-RAB5A

>  <phenotypically active>
0

$$$$
>  <compound>
O=C(O)c1cc(=O)c(O)c(C(=O)O)o1

>  <experimental-target>
HepG2-ACTB-RAB5A

>  <phenotypically active>
0

$$$$

As a next step, examine the compound that follows.
Consider the compound shown here: CC(C)C(=O)Nc1ccc([N+](=O)[O-])c(C(F)(F)F)c1 [flutamide] What is its recorded phenotypically active? 0
